assay details: Partitioning coefficient, ratio of drug uptake from rat brain to plasma at 10 mg/kg, po
Format: ADME, organism-based
Parameters: dose 10 mg/kg, route oral
condition details: brain and plasma, read-out: Kp
property measured: Kp

Cn1cnc(S(=O)(=O)N2C[C@@H]3[C@H](C2)[C@@]3(CNC(=O)c2ccc(Cl)cc2Cl)CC2CC2)c1    0.3

A. Cn1cnc(S(=O)(=O)N2C[C@@H]3[C@H](C2)[C@@]3(CNC(=O)c2ccccc2Cl)CC2CC2)c1
B. Cn1cnc(S(=O)(=O)N2C[C@@H]3[C@H](C2)[C@@]3(CNC(=O)c2cccc(C(F)(F)F)c2)CC2CC2)c1
Q) Sorting ascending by Kp, which comes first: A or B ? Mark your answer with the label of the selected entry.
A) A
(A: 0.4, B: 0.7)
